The origin of these recorded values is paper PMC7997397.

Target: ACE in human intestinal Caco-2 cells (Homo sapiens, UniProt P12821)
Construct: endogenous in cells
Sequence (P12821 30-1306): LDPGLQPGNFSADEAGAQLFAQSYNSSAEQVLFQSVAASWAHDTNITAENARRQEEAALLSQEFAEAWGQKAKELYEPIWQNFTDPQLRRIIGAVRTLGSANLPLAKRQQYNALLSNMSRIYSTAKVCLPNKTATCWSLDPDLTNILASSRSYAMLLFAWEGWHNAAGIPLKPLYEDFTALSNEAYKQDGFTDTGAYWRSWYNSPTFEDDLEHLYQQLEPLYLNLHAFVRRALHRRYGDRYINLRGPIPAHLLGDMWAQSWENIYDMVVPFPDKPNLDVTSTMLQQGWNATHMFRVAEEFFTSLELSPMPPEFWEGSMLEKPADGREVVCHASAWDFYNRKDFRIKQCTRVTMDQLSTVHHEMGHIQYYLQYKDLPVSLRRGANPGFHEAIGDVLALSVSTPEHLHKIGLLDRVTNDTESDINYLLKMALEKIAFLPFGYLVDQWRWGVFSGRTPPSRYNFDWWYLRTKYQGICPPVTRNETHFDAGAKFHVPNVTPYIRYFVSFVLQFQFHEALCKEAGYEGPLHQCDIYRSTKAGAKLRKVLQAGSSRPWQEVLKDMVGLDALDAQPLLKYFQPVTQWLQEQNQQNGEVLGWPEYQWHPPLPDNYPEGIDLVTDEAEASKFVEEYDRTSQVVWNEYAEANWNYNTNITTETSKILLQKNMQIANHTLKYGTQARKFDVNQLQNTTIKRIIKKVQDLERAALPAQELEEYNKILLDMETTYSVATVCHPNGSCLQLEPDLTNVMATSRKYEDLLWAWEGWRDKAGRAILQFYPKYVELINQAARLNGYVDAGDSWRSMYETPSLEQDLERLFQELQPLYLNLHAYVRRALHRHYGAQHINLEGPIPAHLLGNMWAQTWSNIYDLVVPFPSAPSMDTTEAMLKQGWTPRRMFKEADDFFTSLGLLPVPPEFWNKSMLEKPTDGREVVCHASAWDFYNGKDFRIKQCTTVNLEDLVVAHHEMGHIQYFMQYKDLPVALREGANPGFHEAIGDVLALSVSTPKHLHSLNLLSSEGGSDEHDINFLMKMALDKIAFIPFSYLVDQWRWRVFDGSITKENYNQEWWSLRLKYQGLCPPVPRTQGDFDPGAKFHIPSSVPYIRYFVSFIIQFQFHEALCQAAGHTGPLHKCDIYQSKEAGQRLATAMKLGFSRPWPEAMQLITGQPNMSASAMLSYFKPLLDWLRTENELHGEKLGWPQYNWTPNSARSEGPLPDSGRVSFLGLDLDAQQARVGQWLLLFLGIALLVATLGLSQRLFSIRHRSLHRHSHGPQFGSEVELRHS
Experiment: ACE activity cell-based assay (in situ) in Caco-2 cells
Conditions: nondifferentiated Caco-2 cells 5 × 10^4/well, 0.1–250 μM, 24 h, 37 °C; ACE activity in cell lysates with fluorescent substrate; mean ± s.d. of three independent experiments in triplicate
pIC50: −log10 of the molar value. Peptide text beside a SMILES is read from it.
property measured: pIC50

INSERT INTO assay_data (compound, system_under_test, property_measured, value) VALUES
  ('CC(C)C[C@H](N)C(=O)N1CCC[C@H]1C(=O)N[C@@H](Cc1ccc(O)cc1)C(=O)N1CCC[C@H]1C(=O)O [LPYP] (H-LPYP-OH)', 'ACE in human intestinal Caco-2 cells (Homo sapiens, UniProt P12821)', 'pIC50', 5.30);

* * *

Experiment: In vitro gastrointestinal digestion with pepsin and pancreatin
Format: in vitro ADME
Settings: peptide 100 μM; pepsin 1:100 enzyme-to-substrate, pH 2.0, 37 °C, 90 min, then pancreatin 1:50, pH 7.2, 37 °C, 150 min; HPLC-Chip ion trap MS; mean ± s.d. of three independent experiments in triplicate; read-out: degraded after codigestion with pepsin and pancreatin vs undigested peptide
Ends that are not written are not given here.
property measured: metabolised at 4 h, 100 μM (%)

INSERT INTO results (biopolymer_sequence, property_measured, value) VALUES
  ('IAVPTGVA [Soy1, IAVPTGVA]', 'metabolised at 4 h, 100 μM', 27.7);

* * *

Target: ACE in human kidney HK-2 cells (Homo sapiens, UniProt P12821)
Construct: endogenous in cells
Sequence (P12821 30-1306): as above
Experiment: ACE activity cell-based assay (in situ) in HK-2 cells
Settings: renal HK-2 cells 5 × 10^4/well, 0.1–250 μM, 24 h, 37 °C; ACE activity in cell lysates with fluorescent substrate; mean ± s.d. of three independent experiments in triplicate
Peptide text beside a SMILES is read from it.
property measured: IC50

INSERT INTO results (molecule, system_under_test, value) VALUES
  ('CC(C)C[C@H](N)C(=O)N1CCC[C@H]1C(=O)N[C@@H](Cc1ccc(O)cc1)C(=O)N1CCC[C@H]1C(=O)O [LPYP] (H-LPYP-OH)', 'ACE in human kidney HK-2 cells (Homo sapiens, UniProt P12821)', '6.8 µM');

* * *

Target: ACE in human kidney HK-2 cells (Homo sapiens, UniProt P12821)
Construct: endogenous in cells; host or cells: HK-2 cells (ATCC)
Test: ACE activity cell-based assay (in situ) in HK-2 cells
Conditions: renal HK-2 cells 5 × 10^4/well, 0.1–250 μM, 24 h, 37 °C; ACE activity in cell lysates with fluorescent substrate; mean ± s.d. of three independent experiments in triplicate
pIC50: −log10 of the molar value. Ends that are not written are not given here.
property measured: pIC50

INSERT INTO results (biopolymer_sequence, property_measured, value) VALUES
  ('IAVPTGVA [Soy1, IAVPTGVA]', 'pIC50', 5.22);

* * *

Experiment: In vitro gastrointestinal digestion with pepsin and pancreatin
Format: in vitro ADME
Settings: peptide 100 μM; pepsin 1:100 enzyme-to-substrate, pH 2.0, 37 °C, 90 min, then pancreatin 1:50, pH 7.2, 37 °C, 150 min; HPLC-Chip ion trap MS; mean ± s.d. of three independent experiments in triplicate; read-out: degraded after codigestion with pepsin and pancreatin vs undigested peptide
Peptide text beside a SMILES is read from it.
property measured: metabolised at 4 h, 100 μM (%)

INSERT INTO assay_data (molecule, value) VALUES
  ('CC(C)C[C@H](N)C(=O)N1CCC[C@H]1C(=O)N[C@@H](Cc1ccc(O)cc1)C(=O)N1CCC[C@H]1C(=O)O [LPYP] (H-LPYP-OH)', 28.5);
